# assay_target: hGGT (Homo sapiens)
# Construct: lacking the transmembrane domain; made in house; host or cells: Pichia pastoris
# Sequence (P19440 381-569 limits assumed): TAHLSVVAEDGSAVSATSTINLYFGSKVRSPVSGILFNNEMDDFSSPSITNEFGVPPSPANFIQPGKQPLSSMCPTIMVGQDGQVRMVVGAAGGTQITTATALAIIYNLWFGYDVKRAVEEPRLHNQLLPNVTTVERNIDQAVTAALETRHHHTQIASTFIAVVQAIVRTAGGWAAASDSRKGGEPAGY
# Sequence (P19440 27-380 limits assumed): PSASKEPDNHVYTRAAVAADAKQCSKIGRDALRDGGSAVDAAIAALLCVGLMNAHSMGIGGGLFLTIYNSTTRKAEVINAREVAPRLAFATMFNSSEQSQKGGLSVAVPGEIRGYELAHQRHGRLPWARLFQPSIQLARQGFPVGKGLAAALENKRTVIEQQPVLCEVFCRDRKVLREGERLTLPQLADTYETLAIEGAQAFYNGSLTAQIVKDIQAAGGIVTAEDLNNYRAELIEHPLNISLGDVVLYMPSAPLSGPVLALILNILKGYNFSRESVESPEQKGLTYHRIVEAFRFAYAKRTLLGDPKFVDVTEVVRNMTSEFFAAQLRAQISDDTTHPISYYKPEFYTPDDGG
# protocol_details: L-Glutamate Release Assay (Hydrolysis of GSH)
# Type: biochemical
# test_settings: GSH hydrolysis; Table 6; read-out: GSH Kii
# Method: L-Glutamate Release Assay (Hydrolysis of GSH): This assay measures the production of glutamate from the hydrolysis of GSH by GGT enzyme and has been described in detail previously. The concentration of the substrate, GSH, was varied from 5 μM to 20 μM. The concentration of the inhibitors, OU749 and its analogs, were varied from 15.6 μM to 250 μM. […] All compounds were also evaluated as inhibitors of glutamate dehydrogenase, the enzyme in the second half of the L-glutamate release assay. […]
Reported pKi by item:
# log scale: pKi equals minus log10 of the concentration in mol/L

Below, each entry is followed by its recorded pKi result.
# smiles_representation, pKi
rows = [
    ("COc1ccc(Cc2nnc(NS(=O)(=O)c3cccc4ccccc34)s2)cc1", 4.02),
    ("COc1ccc(Cc2nnc(NS(=O)(=O)c3ccc(Cl)cc3Cl)s2)cc1", 3.02),
    ("COc1ccc(Cc2nnc(NS(=O)(=O)c3ccc4ccccc4c3)s2)cc1", 3.69),
]

Q: # get_value(readout='pKi', item= `COc1ccc(Cc2nnc(NS(=O)(=O)c3cccc(Cl)c3)s2)cc1` )
Ans: 4.17
